System Under Test: Rac-1 (Homo sapiens (Human))
Test Name: Rac inhibition assay (labeled GTP)
Format: binding
Experimental Parameters: read-out: Rac-1 % Inh.
Below, each entry is listed alongside its reported inhibition at 20 µM.

Here is how some compounds turned out for inhibition at 20 µM.
NC(=O)C1CCCN1C(=O)c1cccc(-c2cc3nc(N)nc(O)c3s2)c1 (stereo not drawn) [drawing 3862]: 0%
O=C(c1csc2c(O)nc(-c3ccccn3)nc12)N1CCOC(CN2CCOCC2)C1 (stereo not drawn) [drawing 3694]: 76 to 100%
N#Cc1ccc(CCNC(=O)c2csc3nc(-c4ccccn4)nc(N4CCOCC4)c23)cc1 [drawing 3639]: 25 to 50%
CC(C)(C(=O)Nc1nc(-c2ccccn2)nc2sccc12)c1ccc(C#N)cc1 [drawing 3641]: 76 to 100%
Nc1nc(-c2ccccn2)nc(C(=O)NCCc2ccncc2)c1Oc1ccccc1 [drawing 3869]: 51 to 75%

(Q) What value of inhibition at 20 µM has been reported for the following compound? Oc1nc(-c2ccccn2)nc2c(C3CC3)csc12 [drawing 3836]
(A) 51 to 75%

(Q) What value of inhibition at 20 µM has been reported for the following compound? COc1ccc2c(c1)CCC2C(=O)Nc1ccnc(-c2ccccn2)n1 (stereo not drawn) [drawing 3684]
(A) 51 to 75%

(Q) What value of inhibition at 20 µM has been reported for the following compound? O=C(c1csc2c(O)nc(-c3ccccn3)nc12)N1CCNC(c2ccccc2Cl)C1 (stereo not drawn) [drawing 3695]
(A) 76 to 100%

(Q) What value of inhibition at 20 µM has been reported for the following compound? CC(C(=O)Nc1nc(-c2ccccn2)nc2sccc12)c1ccc(C#N)cc1 (stereo not drawn) [drawing 3687]
(A) 76 to 100%

(Q) What value of inhibition at 20 µM has been reported for the following compound? Oc1nc(-c2ccccn2)nc2sc3c(c12)CCCNC3 [drawing 3724]
(A) 76 to 100%

(Q) What value of inhibition at 20 µM has been reported for the following compound? N#Cc1ccc(COCC(=O)Nc2nc(-c3ccccn3)nc3sccc23)cc1 [drawing 3688]
(A) 76 to 100%

(Q) What value of inhibition at 20 µM has been reported for the following compound? CC(C)Oc1ccc(-c2c(-c3ccccc3)sc3c(O)nc(-c4nccn4C)nc23)cc1F [drawing 3929]
(A) 51 to 75%

(Q) What value of inhibition at 20 µM has been reported for the following compound? CC(CO)Nc1nc(-c2nccn2C)nc2sc(-c3ccccc3)c(-c3ccccc3)c12 (stereo not drawn) [drawing 3896]
(A) 1 to 25%
